test system: NCI-H522 lung; assay: NCI tumour cell line growth inhibition, 48 h
Readings of TGI for the listed compounds

Ask | Name the recorded TGI for CNc1ccc([N+](=O)[O-])cc1C(=O)N1CCC[C@H]1CO .
Reply | > 100 µM

Ask | Repeat for the following compound: O=c1c2c(=NCCCN3CCCC3)cc3c(=O)n(CCCN4CCCC4)c(=O)c4c(NCCCN5CCCC5)cc(c(O)n1CCCN1CCCC1)c2c4-3
Reply | 5.53 µM

Ask | Repeat for the following compound: Cc1ccc(Nc2ccnc(Nc3cccc(C(N)=O)c3)n2)cc1O
Reply | > 15.1 µM

Ask | Repeat for the following compound: NCCCN1CCN(CCCNc2ccc3ncn4c5ccccc5c(=O)c2c34)CC1
Reply | 1.52 µM

Ask | Repeat for the following compound: O=C(n1c(=O)n(-c2ccc([N+](=O)[O-])cc2)c(=O)n1C(=O)C(Cl)(Cl)Cl)C(Cl)(Cl)Cl
Reply | > 100 µM

Ask | Repeat for the following compound: c1ccc(CN(Cc2ccccn2)Cn2cccn2)nc1
Reply | > 100 µM

Ask | Repeat for the following compound: Cc1cc2nnn(C3CCCO3)c2cc1C (centres undefined)
Reply | > 100 µM

Ask | Repeat for the following compound: c1csc(-c2csc(-c3cccs3)c2)c1
Reply | > 100 µM

Ask | Repeat for the following compound: C[C@@H]1CC[C@H]2C(CN3CCN(CC4=C(C(F)(F)F)O[C@@H]5O[C@@]6(C)CC[C@H]7[C@H](C)CC[C@@H]4[C@@]57OO6)CC3)=C(C(F)(F)F)O[C@@H]3O[C@@]4(C)CC[C@@H]1[C@]32OO4
Reply | > 27 µM

---

tested on: HT29 colon; assay: NCI tumour cell line growth inhibition, 48 h
Readings of TGI for the listed compounds

Known results for compounds:
1. COc1cc(Nc2ncc(-c3ccccc3)o2)cc(OC)c1OC    > 25 µM
2. Cc1ccc(Nc2ccnc(Nc3cccc(C(N)=O)c3)n2)cc1O    > 25 µM
3. COCCn1cc(-c2csc(-c3c[nH]c4ccc(F)cc34)n2)c2cccnc21    > 100 µM

Ask | Name the recorded TGI for O=C(O)CNS(=O)(=O)c1ccc(NC(=O)c2cccc([N+](=O)[O-])c2)cc1 .
Reply | > 100 µM

Ask | Repeat for the following compound: CCOc1cc(C=Nc2ccc(Oc3ccc(Cl)cc3)c(Cl)c2)ccc1O
Reply | 46.6 µM

---

Readings of TGI for the listed molecules
system: SK-MEL-5 melanoma; assay: NCI tumour cell line growth inhibition, 48 h
All answers are understood in µM, so give the number only.

Known results for molecules:
1. c1csc(-c2csc(-c3cccs3)c2)c1    38.8
2. COc1cc(/C=C2\N=C(c3ccccc3)N(c3ccc(C(=O)c4ccccc4)cc3N3C(=O)/C(=C/c4cc(OC)c(OC)c(OC)c4)N=C3c3ccccc3)C2=O)cc(OC)c1OC    21.2
3. O=c1c2c(=NCCCN3CCCC3)cc3c(=O)n(CCCN4CCCC4)c(=O)c4c(NCCCN5CCCC5)cc(c(O)n1CCCN1CCCC1)c2c4-3    7.17
4. CC(=O)OCC1OC(O[C@@H]2C[C@H]3C(C)(C)[C@H](OC(C)=O)CC[C@]3(C)[C@H]3CC[C@@H]4[C@]5(CC[C@@]4(C)[C@@]32C)O[C@@H]([C@H](O)C(C)(C)O)C[C@@H]5C)C(O)C(O)C1O (stereo partly specified)    22.5

Ask | Name the recorded TGI for C=C1C(=O)O[C@H]2[C@H](OC(C)=O)[C@@H](C)CCC/C(C)=C/CC[C@]3(CO3)[C@H](O)C[C@@H]12 .
Reply | 27.4

Ask | Repeat for the following molecule: C=C1C(=O)O[C@H]2[C@@H](O)[C@H](C)CCC/C(C)=C/CC[C@@]3(C)O[C@@H]3C[C@@H]12
Reply | 28.1

Ask | Repeat for the following molecule: NC(=NC1C2CC3CC(C2)CC1C3)Nc1ccc(I)cc1 (stereo unspecified)
Reply | 2.95
